System: A673/TR/shEF
Experiment: cell viability (LOESS-normalised, relative to median of negative controls) (log2 ratio); higher = more viable cells (less compound effect), active = hit call of the paper (over 3 MAD below the median)
Conditions: 0.308 µM; library screen: screen3; EWS-FLI1 expression: low (doxycycline-induced shRNA knockdown); treatment time: 72 h
In all, about 3,200 compounds went through this assay and about 300 (9.4%) showed activity. Only a selection was taken, and actives are over-represented in it overall.
Choose the fitting class; nothing outside active, inactive is accepted.

Ask: Outcome logged for C[C@@H]1[C@H](O)[C@@H](C)/C=C/C=C/CC/C=C/C=C/C=C/C=C/C(O[C@H]2O[C@H](C)[C@@H](O)[C@H](N)[C@@H]2O)CC2O[C@](O)(CC(O)C(O)CCC(O)CC(O)CC(O)CC(=O)O[C@H]1C)CC(O)C2C(=O)O (stereo partly specified) in this assay:
Reply: inactive

***
Ask: What outcome does the record of this test show for Cc1cccc(C)c1NC(=O)CN1CCCC1=O ?
Reply: inactive

Ask: Per the records of this test, what outcome belongs to CC(=O)O[C@H]1C[C@@H]2CC[C@@H]3[C@H](CC[C@@]4(C)[C@H]3C[C@H]([N+]3(C)CCCCC3)[C@@H]4OC(C)=O)[C@@]2(C)C[C@@H]1[N+]1(C)CCCCC1 ?
Reply: inactive

Ask: In this assay, the call recorded for CC[C@@]1(O)C(=O)OCc2c1cc1n(c2=O)Cc2cc3ccccc3nc2-1 was what?
Reply: active

Ask: Recorded test call requested for CCOC(=O)c1cncn1C(C)c1ccccc1 (stereo unspecified)
Reply: inactive

Ask: Which result was noted for this compound in the test: Cn1c(CCCC(=O)O)nc2cc(N(CCCl)CCCl)ccc21
Reply: inactive

* * *

Test system: A673/TR/shEF
Assay: cell viability (LOESS-normalised, relative to median of negative controls) (log2 ratio); higher = more viable cells (less compound effect), active = hit call of the paper (over 3 MAD below the median)
Conditions: 0.25 µM; library screen: screen1; EWS-FLI1 expression: low (doxycycline-induced shRNA knockdown); treatment time: 72 h
The campaign covered roughly 3,200 compounds. About 300 (9.4%) showed activity. For the sample, actives were picked, then their nearest neighbours and some compounds at random.
Readings of cell viability (log2) for the listed molecules
// no unit, no text: just the number

Ask: Entry under review: CCOP(=S)(OCC)SCSCC . Reported cell viability (log2)?
Reply: -0.0178

More entries:
Ask: Form field: reported cell viability (log2) of COc1ccc(CN2CCN(Cc3cccc(OC)c3)CC2)cc1
Reply: 0.123

Ask: Could you tell me which cell viability (log2) is on file for C/C(O)=C(\C#N)C(=O)Nc1cc(Br)ccc1Br ?
Reply: -0.0251

Ask: Report cell viability (log2) for CC(=O)O[C@@H]1CC2C(C)(C)[C@H](O)C=C[C@]2(C)C2CC[C@]3(C)C(=CC(=O)O[C@H]3c3ccoc3)[C@@]21C (stereo partly specified) please.
Reply: 0.0781

Ask: Request the reported cell viability (log2) associated with CCCC(C)C1(CC)C(=O)NC(=S)NC1=O (stereo unspecified)
Reply: -0.0503

Ask: Which cell viability (log2) is reported for this molecule? CCC(C)c1cnc(CC(C)C)c(=O)n1O (stereo unspecified)
Reply: 0.0724
